# System: GP2d
# Procedure Details: 3D cell proliferation inhibition assay (CellTiter-Glo 3D)
# Type: cell-based
# Settings: GP2d, 120 h, GP2d cells, KRAS G12D, 3D culture, 5 days with compound
This section presents molecules with their documented IC50 values.
Use nM as the unit, but write only the number.

Entry N#Cc1c(N)sc2c(F)ccc(-c3c4c(c5cnc(OCC67CCCN6CC(=C(F)F)C7)nc5c3F)COC4)c12 (stereo not shown) [Example 27] ; IC50 = 6.61

# molecule C[C@@H](O)CN1CC2CCC(C1)N2c1nc(OCC2(CN3CCC(=C(F)F)CC3)CC2)nc2c(F)c(-c3ncc(F)c4sc(N)c(C#N)c34)c3c(c12)COC3 ; its IC50 = 1.79

N#Cc1c(N)sc2c(F)ccc(-c3c4c(c5cnc(OCC6(CN7CCC(=CF)CC7)CC6)nc5c3Cl)COC4)c12 has a reported IC50 of 2.95

---
Data point: N#Cc1c(N)sc2c(F)cnc(-c3c4c(c5c(N6C7CCC6CN(O)C7)nc(OCC6(CN7CCC(=C(F)F)CC7)CC6)nc5c3F)COC4)c12 ; IC50 = 2.12

response.value for N#Cc1c(N)sc2c(F)ccc(-c3c4c(c5c(N6C7CCC6CNC7)nc(OCC67CCCN6CC(=C(F)F)C7)nc5c3F)COC4)c12 (stereo not shown) (field: IC50) = 0.57

Entry N#Cc1c(N)sc2c(F)ccc(-c3c4c(c5c(N6C7CCC6CNC7)nc(OCC6(CN7CCC(=C(F)F)CC7)CC6)nc5c3F)COC4)c12 — recorded IC50 = 0.86

The reported value for N#Cc1c(N)sc2c(F)ccc(-c3c4c(c5c(N6C7CCC6CNC7)nc(OCC67CCCN6CC(=CF)C7)nc5c3F)COC4)c12 (stereo not shown) in terms of IC50 is 0.39

According to the records, this molecule N#Cc1c(N)sc2ccc(F)c(-c3c4c(c5cnc(OCC6(CN7CCC(=CF)CC7)CC6)nc5c3F)COC4)c12 displays IC50 of 8.4

IC50 measured on N#Cc1c(N)sc2c(F)cnc(-c3c4c(c5c(N6C7CCC6CNC7)nc(OCC6(CN7CCC(=C(F)F)CC7)CC6)nc5c3F)COC4)c12 = 0.27
